# test.description: Antiplatelet aggregation activity in New Zealand white rabbit platelet rich plasma assessed as inhibition of ADP-induced aggregation treated for 3 mins before ADP challenge by turbidimetric method
# Type: functional
# reported.conditions: Oryctolagus cuniculus, Newzealand white
pIC50: −log10 of the molar value.
In this section, each of the compounds is paired with its reported pIC50.
observed.property: pIC50

>>> df
                                   compound  reported_result
0  CC1(C)CCC[C@]2(C)[C@H]3CCC4=CC(=O)O[C@@H]4[C@@]3(C)C(=O)C[C@@H]12           < 3.70
1  C=C1CC[C@H]2C(C)(C)CCC[C@]2(C)[C@H]1C/C=C(/CO)[C@@H](O)CO           < 3.70
2  CC1(C)CCC[C@]2(C)[C@H]3CC=C(CCO)C(O)[C@@]3(C)C(=O)C[C@@H]12 (stereo partly drawn)           < 3.70
3                     CC(=O)Oc1ccccc1C(=O)O             4.23
4  CC1(C)[C@@H](O)CC[C@]2(C)[C@H]3CCC4=CC(=O)O[C@@H]4[C@@]3(C)C(=O)C[C@@H]12           < 3.70
5  CC1(C)C(=O)CC[C@]2(C)[C@H]3CCC4=CC(=O)O[C@@H]4[C@@]3(C)C(=O)C[C@@H]12           < 3.70
6  C=C1CC[C@H]2[C@](C)(CO)[C@@H](O)CC[C@]2(C)[C@H]1CCC1=CC(=O)OC1             4.23
7  C=C1CC[C@H]2[C@](C)(CO)[C@@H](O)CC[C@]2(C)[C@H]1C/C=C1\CCOC1=O           < 3.70
